# SUBJECT OF TEST: recombinant HDAC1 enzyme (Homo sapiens (Human))
# Sequence (Q13547 whole entry, canonical isoform): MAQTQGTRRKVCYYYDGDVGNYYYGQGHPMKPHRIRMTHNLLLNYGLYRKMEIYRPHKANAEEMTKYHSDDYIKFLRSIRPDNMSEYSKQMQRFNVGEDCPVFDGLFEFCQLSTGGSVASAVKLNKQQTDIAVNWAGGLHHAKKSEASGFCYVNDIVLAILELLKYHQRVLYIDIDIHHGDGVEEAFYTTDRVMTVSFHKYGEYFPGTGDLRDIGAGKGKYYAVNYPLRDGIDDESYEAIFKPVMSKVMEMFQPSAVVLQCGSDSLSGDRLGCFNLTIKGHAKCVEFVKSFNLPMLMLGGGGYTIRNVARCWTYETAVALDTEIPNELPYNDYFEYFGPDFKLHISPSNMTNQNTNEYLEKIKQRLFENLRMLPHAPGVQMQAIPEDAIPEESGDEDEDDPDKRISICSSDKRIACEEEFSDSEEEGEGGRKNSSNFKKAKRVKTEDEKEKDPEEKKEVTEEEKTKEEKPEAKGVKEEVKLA
# EXPERIMENT DESCRIPTION: HDAC1 inhibitory activity (isoform selectivity)
# EXPERIMENTAL SETUP: read-out: HDAC1 inhibition (IC50)
# Description: The assay was carried out, as previously described using recombinant HDAC1 enzyme (BIOMOL, USA) and following manufacturer's instructions.
In this section we review reported IC50 values for a set of molecules.
Answer as a quantity: numeral, then unit.

Before answering, review these 4 worked examples.
* COc1ccc(/C=C(/C(=O)NCc2ccc(C(=O)Nc3ccccc3N)cc2)c2cccc(F)c2)cc1OC [Compound 32] | 52 nM
* COc1ccc(/C=C(/C(=O)NCc2ccc(C(=O)Nc3ccccc3N)cc2)c2ccc(F)cc2)cc1OC [Compound 19] | 42 nM
* COc1ccc(/C=C(/C(=O)NCc2ccc(C(=O)Nc3ccccc3N)cc2)c2ccc(C)cc2)cc1OC [Compound 29] | 57 nM
* COc1ccc(/C=C(/C(=O)NCc2ccc(C(=O)Nc3ccccc3N)cc2)c2ccccc2)cc1OC [Compound 31] | 54 nM

Attention now turns to another entry.
Exercise: Read off the recorded IC50 for COc1ccc(/C=C(/C(=O)NCc2ccc(C(=O)Nc3ccccc3N)cc2)c2ccccc2F)cc1OC [Compound 28]
Key: 36 nM

---

# Test system: Acetylated histone (H3)
# EXPERIMENT DESCRIPTION: Histone (H3) acetylation, sandwich ELISA in HCT116 lysate
# Format: cell-based
# EXPERIMENTAL SETUP: 1 μM, HCT116, 4 hours
In this section we review reported H3 acetylation (Fold increase) values for a set of molecules.
Lab book: enter the figure in Fold increase, no units written.

Before answering, review these 3 worked examples.
* CSc1ccc(/C=C(/C(=O)NCc2ccc(C(=O)NO)cc2)c2cccnc2)cc1 [Compound 55] | 4.2
* COc1ccc(/C=C(/C(=O)NCc2ccc(C(=O)Nc3ccccc3N)cc2)c2ccccc2F)cc1OC [Compound 28] | 1.1
* COc1ccc(/C=C(/C(=O)NCc2ccc(C(=O)Nc3ccccc3N)cc2)c2ccccc2)cc1OC [Compound 31] | 0.9

Attention now turns to another entry.
Exercise: Read off the recorded H3 acetylation (Fold increase) for COc1ccc(/C=C(/C(=O)NCc2ccc(C(=O)Nc3ccccc3N)cc2)c2ccc(F)cc2)cc1OC [Compound 19]
Key: 4

---

# Tested on: U251 (glioma) cells
# EXPERIMENT DESCRIPTION: Anti-cancer screen (MTT), U251
# Type: cell-based
# EXPERIMENTAL SETUP: Homo sapiens, U-251; U251, 48 hours, MTT; read-out: Cell growth inhibition U251 (Glioma) TGI
In this section we review reported IC (TGI) values for a set of compounds.
Lab book: enter the figure in µM, no units written.

* Nc1ccccc1NC(=O)c1ccc(CNC(=O)/C(=C/c2ccc([N+](=O)[O-])s2)c2ccc(F)cc2)cc1 | 34.5
* COc1cc(/C=C(/C(=O)NCc2ccc(C(=O)NO)cc2)c2ccc(F)cc2)ccc1F | 38
* COc1ccc(/C=C(/C(=O)NCc2ccc(C(=O)Nc3ccccc3N)cc2)c2ccc(C)cc2)cc1OC | 45

Exercise: Read off the recorded IC (TGI) for CSc1ccc(/C=C(/C(=O)NCCCCCC(=O)NO)c2ccccc2Cl)cc1
Key: 11

Exercise: Read off the recorded IC (TGI) for Nc1ccccc1NC(=O)c1ccc(CNC(=O)/C(=C/c2ccccc2)c2ccccc2)cc1
Key: 48.5

Exercise: Read off the recorded IC (TGI) for COC(=O)c1ccc(/C=C(/C(=O)NCc2ccc(C(=O)Nc3ccccc3N)cc2)c2ccc(F)c(F)c2)cc1
Key: 70

Exercise: Read off the recorded IC (TGI) for Nc1ccccc1NC(=O)c1ccc(CNC(=O)/C(=C/c2ccc(F)c(F)c2)c2ccc(F)cc2)cc1
Key: 4.2

---

# Tested on: NCIH460 (lung) cells
# EXPERIMENT DESCRIPTION: Anti-cancer screen (MTT), NCIH460
# Type: cell-based
# EXPERIMENTAL SETUP: Homo sapiens, NCI-H460; NCIH460, 48 hours, MTT; read-out: Cell growth inhibition NCIH460 (Lung) LC50
MEASURED PARAMETER: LC50

Before answering, review these 2 worked examples.
- O=C(NCc1ccc(C(=O)NO)cc1)/C(=C/c1ccc(F)cc1)c1ccccc1: 86 µM
- CSc1ccc(/C=C(/C(=O)NCCCCCCC(=O)NO)c2ccc(F)cc2)cc1: 70 µM

Exercise: Give measured LC50 for CSc1ccc(/C=C(/C(=O)NCc2ccc(C(=O)NO)cc2)c2cccnc2)cc1 (NCIH460 (lung) cells).
Key: > 100 µM

Exercise: Give measured LC50 for CSc1ccc(/C=C(/C(=O)NCc2ccc(C(=O)NO)cc2)c2ccccc2Cl)cc1 (NCIH460 (lung) cells).
Key: > 100 µM

Exercise: Give measured LC50 for Nc1ccccc1NC(=O)c1ccc(CNC(=O)/C(=C/c2ccc([N+](=O)[O-])s2)c2ccc(F)cc2)cc1 (NCIH460 (lung) cells).
Key: 73.8 µM

Exercise: Give measured LC50 for COc1ccc(/C=C(/C(=O)NCc2ccc(C(=O)Nc3ccccc3N)cc2)c2ccc(F)cc2)cc1 (NCIH460 (lung) cells).
Key: 83 µM

Exercise: Give measured LC50 for COc1ccc(/C(=C\c2ccc(SC)cc2)C(=O)NCc2ccc(C(=O)Nc3ccccc3N)cc2)cc1 (NCIH460 (lung) cells).
Key: > 100 µM

Exercise: Give measured LC50 for CSc1ccc(/C=C(/C(=O)NCc2ccc(C(=O)Nc3ccccc3N)cc2)c2ccccc2Cl)cc1 (NCIH460 (lung) cells).
Key: > 100 µM

Exercise: Give measured LC50 for CS(=O)(=O)c1ccc(/C=C(/C(=O)NCCCCCC(=O)Nc2ccccc2N)c2ccc(F)cc2)cc1 (NCIH460 (lung) cells).
Key: > 100 µM

Exercise: Give measured LC50 for Nc1ccccc1NC(=O)c1ccc(CNC(=O)/C(=C/c2ccc(F)c(C(F)(F)F)c2)c2ccc(C(F)(F)F)cc2)cc1 (NCIH460 (lung) cells).
Key: 58.5 µM

Exercise: Give measured LC50 for CSc1ccc(/C=C(/C(=O)NCc2ccc(C(=O)NO)cc2)c2ccsc2)cc1 (NCIH460 (lung) cells).
Key: 30 µM

Exercise: Give measured LC50 for COc1ccc(/C=C(/C(=O)NCc2ccc(C(=O)Nc3ccccc3N)cc2)c2ccccc2)cc1 (NCIH460 (lung) cells).
Key: > 100 µM

---

In this section we review reported LC50 values for a set of compounds.
# System: NCIH460 (lung) cells
# EXPERIMENT DESCRIPTION: Anti-cancer screen (MTT), NCIH460
# Format: cell-based
# EXPERIMENTAL SETUP: Homo sapiens, NCI-H460; NCIH460, 48 hours, MTT; read-out: Cell growth inhibition NCIH460 (Lung) LC50
Lab book: enter the figure in µM, no units written.

• CSc1ccc(/C=C(/C(=O)NCc2ccc(C(=O)NO)cc2)c2ccc(C)cc2)cc1 = 81

Attention now turns to another entry.
Exercise: Read off the recorded LC50 for O=C(CCCCCCNC(=O)/C(=C\c1ccccc1)c1ccccc1)NO
Key: 75

---

# System: U251 (glioma) cells
# EXPERIMENT DESCRIPTION: Anti-cancer screen (MTT), U251
# Type: cell-based
# EXPERIMENTAL SETUP: Homo sapiens, U-251; U251, 48 hours, MTT; read-out: Cell growth inhibition U251 (Glioma) TGI
Assign TRUE to entries whose IC (TGI) meets or exceeds 20 µM; assign FALSE to the rest.

The following compounds have reported results that may help.
• CS(=O)(=O)c1ccc(/C=C(/C(=O)NCCCCCC(=O)Nc2ccccc2N)c2ccc(F)cc2)cc1 = TRUE
• CSc1ccc(/C=C(/C(=O)NCc2ccc(C(=O)NO)cc2)c2ccsc2)cc1 = FALSE
• COc1ccc(/C=C(/C(=O)NCc2ccc(C(=O)Nc3ccccc3N)cc2)c2ccccc2F)cc1OC = TRUE
• O=C(CCCCCCNC(=O)/C(=C\c1ccccc1)c1ccccc1)NO = TRUE
• CSc1ccc(/C=C(/C(=O)NCCCCCCC(=O)NO)c2ccc(F)cc2)cc1 = TRUE
• COc1ccc(/C=C(/C(=O)NCc2ccc(C(=O)Nc3ccccc3N)cc2)c2ccccc2Cl)cc1OC = TRUE

Exercise: Dear colleague, could you confirm whether Nc1ccccc1NC(=O)c1ccc(CNC(=O)/C(=C/c2c(F)cc(F)cc2F)c2ccc(F)cc2)cc1 has IC (TGI) at or above 20 µM?
Key: FALSE

Exercise: Dear colleague, could you confirm whether CSc1ccc(/C=C(/C(=O)NCc2ccc(C(=O)NO)cc2)c2ccccc2Cl)cc1 has IC (TGI) at or above 20 µM?
Key: FALSE

Exercise: Dear colleague, could you confirm whether O=C(CCCCCNC(=O)/C(=C/c1ccccc1)c1ccccc1)NO has IC (TGI) at or above 20 µM?
Key: TRUE

Exercise: Dear colleague, could you confirm whether COc1ccc(/C=C(/C(=O)NCc2ccc(C(=O)Nc3ccccc3N)cc2)c2ccccc2)cc1 has IC (TGI) at or above 20 µM?
Key: TRUE

Exercise: Dear colleague, could you confirm whether COc1ccc(/C=C(/C(=O)NCc2ccc(C(=O)NO)cc2)c2ccc(F)cc2)cc1 has IC (TGI) at or above 20 µM?
Key: FALSE

Exercise: Dear colleague, could you confirm whether Nc1ccccc1NC(=O)c1ccc(CNC(=O)/C(=C/c2ccccc2F)c2ccc(Cl)cc2)cc1 has IC (TGI) at or above 20 µM?
Key: TRUE

Exercise: Dear colleague, could you confirm whether COc1ccc(/C(=C\c2ccc(F)cc2)C(=O)NCc2ccc(C(=O)NO)cc2)cc1 has IC (TGI) at or above 20 µM?
Key: TRUE

Exercise: Dear colleague, could you confirm whether COc1ccc(/C=C(/C(=O)NCc2ccc(C(=O)Nc3ccccc3N)cc2)c2ccc(F)cc2)cc1OC has IC (TGI) at or above 20 µM?
Key: FALSE

Exercise: Dear colleague, could you confirm whether O=C(NCc1ccc(C(=O)NO)cc1)/C(=C/c1c(F)cc(F)cc1F)c1ccc(F)cc1 has IC (TGI) at or above 20 µM?
Key: TRUE

Exercise: Dear colleague, could you confirm whether COc1ccc(/C=C(/C(=O)NCc2ccc(C(=O)Nc3ccccc3N)cc2)c2cccc(F)c2)cc1OC has IC (TGI) at or above 20 µM?
Key: TRUE
